The entries below come with measured log10(IC50) values attached.
Target: EGFR L858R/T790M/C797S (Homo sapiens, UniProt P00533, C797S/L858R/T790M)
Sequence (P00533 25-1210 T790M/C797S/L858R): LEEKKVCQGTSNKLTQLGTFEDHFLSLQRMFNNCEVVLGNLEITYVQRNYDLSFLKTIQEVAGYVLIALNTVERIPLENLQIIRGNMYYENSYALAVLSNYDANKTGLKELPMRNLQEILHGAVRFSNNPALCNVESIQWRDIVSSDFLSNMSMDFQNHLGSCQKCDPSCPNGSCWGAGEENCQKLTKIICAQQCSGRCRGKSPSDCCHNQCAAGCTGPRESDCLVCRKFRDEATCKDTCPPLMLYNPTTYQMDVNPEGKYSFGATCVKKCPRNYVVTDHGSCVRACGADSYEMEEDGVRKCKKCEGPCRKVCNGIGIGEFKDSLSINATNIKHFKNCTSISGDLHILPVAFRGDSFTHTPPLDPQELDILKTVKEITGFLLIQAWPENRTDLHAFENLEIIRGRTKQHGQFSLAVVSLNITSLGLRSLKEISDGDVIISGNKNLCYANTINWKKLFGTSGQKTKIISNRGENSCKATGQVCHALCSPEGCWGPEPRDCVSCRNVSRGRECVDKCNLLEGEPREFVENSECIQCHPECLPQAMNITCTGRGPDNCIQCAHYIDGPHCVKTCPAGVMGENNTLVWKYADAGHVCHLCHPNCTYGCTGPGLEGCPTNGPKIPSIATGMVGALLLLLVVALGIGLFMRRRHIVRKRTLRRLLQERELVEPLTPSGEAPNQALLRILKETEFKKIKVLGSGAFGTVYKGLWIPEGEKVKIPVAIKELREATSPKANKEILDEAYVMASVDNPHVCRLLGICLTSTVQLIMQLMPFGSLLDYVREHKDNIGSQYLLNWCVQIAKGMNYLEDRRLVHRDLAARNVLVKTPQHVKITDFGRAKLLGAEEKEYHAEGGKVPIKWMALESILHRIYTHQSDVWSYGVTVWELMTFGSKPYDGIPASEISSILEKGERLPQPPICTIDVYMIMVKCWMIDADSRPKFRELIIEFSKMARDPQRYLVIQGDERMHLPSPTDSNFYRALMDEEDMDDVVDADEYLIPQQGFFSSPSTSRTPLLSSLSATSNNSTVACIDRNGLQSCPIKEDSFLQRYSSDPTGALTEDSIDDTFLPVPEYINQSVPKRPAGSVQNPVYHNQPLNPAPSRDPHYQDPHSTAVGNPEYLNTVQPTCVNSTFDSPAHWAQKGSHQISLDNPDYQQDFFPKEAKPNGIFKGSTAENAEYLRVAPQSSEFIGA
Assay: Biochemical EGFR kinase assay (Lance Ultra TR-FRET), triple mutant L858R/T790M/C797S
Details: IC50 L858R/T790M/C797S, 100 μM ATP
Experimental: Biochemical EGFR kinase assays were conducted using Lance Ultra time-resolved fluorescence resonance energy transfer (TR-FRET) technology from Perkin-Elmer. […] Each kinase reactions were incubated at room temperature for 1 hour and then stopped by the addition of 4 μL of stop solution (10 mM EDTA). […] After 60 minutes incubation at room temperature the LANCE signal was measured on an EnVision Multilabel Reader (Perkin-Elmer). […]
reported_property: log10(IC50) (log10 of the value in nM)

[[record]]
smiles_code = "CN(C)C[C@H]1CC[C@@H](Nc2cc(Nc3ccnc(-c4cnn(S(=O)(=O)C5CC5)c4)n3)ncc2-c2ccc(OC(F)(F)F)cn2)CC1"
reported_property = "log10(IC50)"
measured_number = -0.30

[[record]]
smiles_code = "CC(C)(O)[C@H]1CC[C@@H](Nc2cc(Nc3ccnc(-c4cnn(S(=O)(=O)C5CC5)c4)n3)ncc2-c2cccc(F)n2)CC1"
reported_property = "log10(IC50)"
measured_number = 0.36

[[record]]
smiles_code = "C[C@]1(O)CC[C@@H](Nc2cc(Nc3ccnc(-c4cnn(S(=O)(=O)C5CC5)c4)n3)ncc2-c2cnc(F)cn2)CC1"
reported_property = "log10(IC50)"
measured_number = 0.28

[[record]]
smiles_code = "CN(C)C[C@H]1CC[C@@H](Nc2cc(Nc3ccnc(-c4cnn(S(=O)(=O)C5CC5)c4)n3)ncc2-c2ccc(S(C)(=O)=O)cn2)CC1"
reported_property = "log10(IC50)"
measured_number = -1.00

[[record]]
smiles_code = "C[C@]1(O)CC[C@@H](Nc2cc(Nc3ccnc(-c4cnn(S(=O)(=O)C5CC5)c4)n3)ncc2-c2ccc(OCCO)cn2)CC1"
reported_property = "log10(IC50)"
measured_number = -0.70

[[record]]
smiles_code = "CC(C)(O)[C@H]1CC[C@@H](Nc2cc(Nc3ccnc(-c4cnn(S(=O)(=O)C5CC5)c4)n3)ncc2-c2ccc(S(=O)(=O)N3CCOCC3)cn2)CC1"
reported_property = "log10(IC50)"
measured_number = -0.10


* * *

target: EGFR wildtype (Homo sapiens); assay: Biochemical EGFR kinase assay (Lance Ultra TR-FRET), wildtype; conditions: IC50 WT (nM) 100 μM ATP, 100 μM ATP
reported_property: IC50 (nM)

[[record]]
smiles_code = "CN(C)C[C@H]1CC[C@@H](Nc2cc(Nc3ccnc(-c4cnn(S(=O)(=O)C5CC5)c4)n3)ncc2-c2ccc(C(C)(C)O)nn2)CC1"
reported_property = "IC50"
relation_operator = "="
measured_number = 1640

[[record]]
smiles_code = "CC(C)(O)[C@H]1CC[C@@H](Nc2cc(Nc3ccnc(-c4cnn(S(=O)(=O)C5CC5)c4)n3)ncc2-c2ccc(N3CCC(F)(F)CC3)nn2)CC1"
reported_property = "IC50"
relation_operator = ">"
measured_number = 10000

[[record]]
smiles_code = "CN(C)C[C@H]1CC[C@@H](Nc2cc(Nc3ccnc(-c4cnn(S(=O)(=O)C5CC5)c4)n3)ncc2-c2cc(C(C)(C)O)c(F)cn2)CC1"
reported_property = "IC50"
relation_operator = "="
measured_number = 327

[[record]]
smiles_code = "O=S(=O)(C1CC1)n1cc(-c2nccc(Nc3cc(N[C@H]4CC[C@](O)(CO)CC4)c(-c4ccccn4)cn3)n2)cn1"
reported_property = "IC50"
relation_operator = ">"
measured_number = 10000

[[record]]
smiles_code = "COC1CN(c2ccc(-c3cnc(Nc4ccnc(-c5cnn(S(=O)(=O)C6CC6)c5)n4)cc3N[C@H]3CC[C@@H](CN(C)C)CC3)nc2)C1"
reported_property = "IC50"
relation_operator = "="
measured_number = 172

[[record]]
smiles_code = "C[C@]1(O)CC[C@@H](Nc2cc(Nc3ccnc(-c4cnn(S(=O)(=O)C5CC5)c4)n3)ncc2-c2ccc(C(F)F)cn2)CC1"
reported_property = "IC50"
relation_operator = ">"
measured_number = 10000


* * *

biological target: EGFR wildtype (Homo sapiens, UniProt P00533); test: Biochemical EGFR kinase assay (Lance Ultra TR-FRET), wildtype; details: IC50 WT (nM) 100 μM ATP, 100 μM ATP
Sequence (P00533 25-1210): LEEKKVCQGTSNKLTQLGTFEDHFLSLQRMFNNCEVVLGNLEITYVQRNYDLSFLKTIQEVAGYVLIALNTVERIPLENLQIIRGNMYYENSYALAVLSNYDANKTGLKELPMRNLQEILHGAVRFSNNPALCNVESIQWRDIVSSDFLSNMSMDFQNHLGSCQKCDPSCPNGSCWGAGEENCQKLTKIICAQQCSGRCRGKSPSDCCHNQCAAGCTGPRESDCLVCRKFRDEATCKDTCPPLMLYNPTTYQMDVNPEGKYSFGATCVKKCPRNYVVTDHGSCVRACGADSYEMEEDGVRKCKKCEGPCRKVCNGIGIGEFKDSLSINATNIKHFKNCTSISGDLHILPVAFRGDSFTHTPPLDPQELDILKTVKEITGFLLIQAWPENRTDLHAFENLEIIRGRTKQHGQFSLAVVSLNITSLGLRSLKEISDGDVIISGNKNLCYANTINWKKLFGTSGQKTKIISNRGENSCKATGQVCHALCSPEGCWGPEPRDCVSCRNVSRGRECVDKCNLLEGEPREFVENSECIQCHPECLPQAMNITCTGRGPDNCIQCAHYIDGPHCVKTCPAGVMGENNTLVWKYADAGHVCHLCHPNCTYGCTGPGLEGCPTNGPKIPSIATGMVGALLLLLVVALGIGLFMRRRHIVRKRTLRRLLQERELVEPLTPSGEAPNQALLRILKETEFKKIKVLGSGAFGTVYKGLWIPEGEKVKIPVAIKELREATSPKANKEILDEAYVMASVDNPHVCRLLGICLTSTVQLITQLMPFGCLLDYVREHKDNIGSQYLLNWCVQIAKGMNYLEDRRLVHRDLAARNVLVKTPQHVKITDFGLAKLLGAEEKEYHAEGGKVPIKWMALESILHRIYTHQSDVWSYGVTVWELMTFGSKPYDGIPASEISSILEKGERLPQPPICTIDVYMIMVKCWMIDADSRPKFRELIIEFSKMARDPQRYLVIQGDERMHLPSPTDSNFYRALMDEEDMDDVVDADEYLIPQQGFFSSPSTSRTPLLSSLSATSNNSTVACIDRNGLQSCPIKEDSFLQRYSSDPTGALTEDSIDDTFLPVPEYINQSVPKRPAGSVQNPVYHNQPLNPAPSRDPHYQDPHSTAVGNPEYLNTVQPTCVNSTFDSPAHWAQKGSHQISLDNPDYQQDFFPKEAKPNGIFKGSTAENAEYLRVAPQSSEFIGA
Examples of molecules with documented IC50 follow.
reported_property: IC50 (nM)

[[record]]
smiles_code = "CC(C)(O)c1cc(-c2cnc(Nc3ccnc(-c4cnn(S(=O)(=O)C5CC5)c4)n3)cc2N[C@H]2CC[C@@H](C(C)(C)O)CC2)ncc1F"
relation_operator = "="
measured_number = 3710

[[record]]
smiles_code = "CC(C)(O)c1cnc(-c2cnc(Nc3ccnc(-c4cnn(S(=O)(=O)C5CC5)c4)n3)cc2N[C@H]2CC[C@@](C)(O)CC2)cn1"
relation_operator = "="
measured_number = 400

[[record]]
smiles_code = "C[C@]1(O)CC[C@@H](Nc2cc(Nc3ccnc(-c4cnn(S(=O)(=O)C5CC5)c4)n3)ncc2-c2ccc(N3CCCCC3)cn2)CC1"
relation_operator = "="
measured_number = 5840

[[record]]
smiles_code = "C[C@]1(O)CC[C@@H](Nc2cc(Nc3ccnc(-c4cnn(S(=O)(=O)C5CC5)c4)n3)ncc2-c2ccc(CN3CCC(F)(F)CC3)cn2)CC1"
relation_operator = "="
measured_number = 813

[[record]]
smiles_code = "COc1cnc(-c2cnc(Nc3ccnc(-c4cnn(S(=O)(=O)C5CC5)c4)n3)cc2N[C@H]2CC[C@@](C)(O)CC2)cn1"
relation_operator = ">"
measured_number = 10000

[[record]]
smiles_code = "CC(C)(O)[C@H]1CC[C@@H](Nc2cc(Nc3ccnc(-c4cnn(S(=O)(=O)C5CC5)c4)n3)ncc2-c2ccc(CN3CCOCC3)cn2)CC1"
relation_operator = "="
measured_number = 1830


* * *

molecular target: EGFR del19/T790M/C797S (Homo sapiens, UniProt P00533, C797S/DEL746-750/T790M); assay: Biochemical EGFR kinase assay (Lance Ultra TR-FRET), triple mutant del19/T790M/C797S; details: Km ATP; read-out: IC50 del19/T790M/C797S (nM) Km ATP
Sequence (P00533 with tags, fused parts or gaps DEL746-750/T790M/C797S): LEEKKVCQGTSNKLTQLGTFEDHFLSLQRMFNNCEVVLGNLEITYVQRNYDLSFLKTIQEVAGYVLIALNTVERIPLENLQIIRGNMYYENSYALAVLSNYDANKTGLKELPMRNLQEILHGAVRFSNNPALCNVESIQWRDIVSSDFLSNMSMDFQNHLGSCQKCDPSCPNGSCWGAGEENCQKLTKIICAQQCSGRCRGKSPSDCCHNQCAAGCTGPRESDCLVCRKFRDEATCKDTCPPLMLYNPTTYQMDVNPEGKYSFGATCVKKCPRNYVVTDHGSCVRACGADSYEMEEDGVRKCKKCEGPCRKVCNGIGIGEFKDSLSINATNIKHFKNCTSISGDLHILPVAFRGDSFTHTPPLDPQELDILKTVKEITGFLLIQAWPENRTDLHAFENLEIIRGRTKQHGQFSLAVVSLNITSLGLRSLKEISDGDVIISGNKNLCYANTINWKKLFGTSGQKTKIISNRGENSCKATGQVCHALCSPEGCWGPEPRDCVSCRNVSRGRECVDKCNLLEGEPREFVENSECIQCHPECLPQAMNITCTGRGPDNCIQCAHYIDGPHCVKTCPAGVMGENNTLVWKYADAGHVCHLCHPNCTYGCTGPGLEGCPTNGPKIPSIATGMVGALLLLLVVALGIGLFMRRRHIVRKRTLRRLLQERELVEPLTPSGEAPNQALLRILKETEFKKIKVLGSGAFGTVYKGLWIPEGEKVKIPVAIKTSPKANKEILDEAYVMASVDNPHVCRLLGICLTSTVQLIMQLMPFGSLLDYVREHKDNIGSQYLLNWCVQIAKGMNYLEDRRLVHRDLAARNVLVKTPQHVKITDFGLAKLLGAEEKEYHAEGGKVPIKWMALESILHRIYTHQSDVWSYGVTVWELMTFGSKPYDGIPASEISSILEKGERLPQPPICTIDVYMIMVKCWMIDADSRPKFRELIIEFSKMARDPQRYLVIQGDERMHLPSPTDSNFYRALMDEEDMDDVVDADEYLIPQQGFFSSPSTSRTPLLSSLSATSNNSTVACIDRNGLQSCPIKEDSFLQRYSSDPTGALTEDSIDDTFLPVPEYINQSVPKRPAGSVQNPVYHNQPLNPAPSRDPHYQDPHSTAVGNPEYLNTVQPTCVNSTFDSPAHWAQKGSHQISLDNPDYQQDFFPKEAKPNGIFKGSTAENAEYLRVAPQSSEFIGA
reported_property: IC50 (nM)

[[record]]
compound = "CN(C)CCOc1cnc(-c2cnc(Nc3ccnc(-c4cnn(S(=O)(=O)C5CC5)c4)n3)cc2N[C@H]2CC[C@@H](C(C)(C)O)CC2)cn1"
target_system = "EGFR del19/T790M/C797S (Homo sapiens, UniProt P00533, C797S/DEL746-750/T790M)"
measured_number = 0.2

[[record]]
compound = "CN(C)CCOc1cnc(-c2cnc(Nc3ccnc(-c4cnn(S(=O)(=O)C5CC5)c4)n3)cc2NC2CCC(C)(O)CC2)cn1 (stereo not shown)"
target_system = "EGFR del19/T790M/C797S (Homo sapiens, UniProt P00533, C797S/DEL746-750/T790M)"
measured_number = 0.1

[[record]]
compound = "O=S(=O)(C1CC1)n1cc(-c2nccc(Nc3cc(N[C@H]4CC[C@@H](NCCF)CC4)c(-c4ccccn4)cn3)n2)cn1"
target_system = "EGFR del19/T790M/C797S (Homo sapiens, UniProt P00533, C797S/DEL746-750/T790M)"
measured_number = 0.1

[[record]]
compound = "CC(C)Nc1cc(Nc2ccnc(-c3cnn(S(=O)(=O)C4CC4)c3)n2)ncc1-c1cnc(OC(F)F)cn1"
target_system = "EGFR del19/T790M/C797S (Homo sapiens, UniProt P00533, C797S/DEL746-750/T790M)"
measured_number = 17.5

[[record]]
compound = "C[C@]1(O)CC[C@@H](Nc2cc(Nc3ccnc(-c4cnn(S(=O)(=O)C5CC5)c4)n3)ncc2-c2ncccc2OCC(F)F)CC1"
target_system = "EGFR del19/T790M/C797S (Homo sapiens, UniProt P00533, C797S/DEL746-750/T790M)"
measured_number = 2.1

[[record]]
compound = "O=S(=O)(C1CC1)n1cc(-c2nccc(Nc3cc(N[C@H]4CC[C@@H](CO)CC4)c(-c4cc(C(F)F)ccn4)cn3)n2)cn1"
target_system = "EGFR del19/T790M/C797S (Homo sapiens, UniProt P00533, C797S/DEL746-750/T790M)"
measured_number = 2.1

[[record]]
compound = "Cc1ccc(-c2cnc(Nc3ccnc(-c4cnn(S(=O)(=O)C5CC5)c4)n3)cc2N[C@H]2CC[C@@](C)(O)CC2)nc1"
target_system = "EGFR del19/T790M/C797S (Homo sapiens, UniProt P00533, C797S/DEL746-750/T790M)"
measured_number = 0.4

[[record]]
compound = "CC(C)(O)[C@H]1CC[C@@H](Nc2cc(Nc3ccnc(-c4cnn(S(=O)(=O)C5CC5)c4)n3)ncc2-c2cnc(N3CCC(F)(F)CC3)cn2)CC1"
target_system = "EGFR del19/T790M/C797S (Homo sapiens, UniProt P00533, C797S/DEL746-750/T790M)"
measured_number = 10.7

[[record]]
compound = "COC1CN(c2ccc(-c3cnc(Nc4ccnc(-c5cnn(S(=O)(=O)C6CC6)c5)n4)cc3N[C@H]3CC[C@@](C)(O)CC3)nc2)C1"
target_system = "EGFR del19/T790M/C797S (Homo sapiens, UniProt P00533, C797S/DEL746-750/T790M)"
measured_number = 0.6

[[record]]
compound = "CN1CCC(Oc2ccc(-c3cnc(Nc4ccnc(-c5cnn(CC(F)F)c5)n4)cc3N[C@H]3CC[C@@H](F)CC3)nc2)CC1"
target_system = "EGFR del19/T790M/C797S (Homo sapiens, UniProt P00533, C797S/DEL746-750/T790M)"
measured_number = 0.5

[[record]]
compound = "CN(C)C[C@H]1CC[C@@H](Nc2cc(Nc3ccnc(-c4cnn(S(=O)(=O)C5CC5)c4)n3)ncc2-c2cnc(OC(F)F)cn2)CC1"
target_system = "EGFR del19/T790M/C797S (Homo sapiens, UniProt P00533, C797S/DEL746-750/T790M)"
measured_number = 0.2

[[record]]
compound = "CC(C)(O)[C@H]1CC[C@@H](Nc2cc(Nc3ccnc(-c4cnn(S(=O)(=O)C5CC5)c4)n3)ncc2-c2cc(C(F)F)ccn2)CC1"
target_system = "EGFR del19/T790M/C797S (Homo sapiens, UniProt P00533, C797S/DEL746-750/T790M)"
measured_number = 6.8

[[record]]
compound = "C[C@]1(O)CC[C@@H](Nc2cc(Nc3ccnc(-c4cnn(S(=O)(=O)C5CC5)c4)n3)ncc2-c2cccc(CO)n2)CC1"
target_system = "EGFR del19/T790M/C797S (Homo sapiens, UniProt P00533, C797S/DEL746-750/T790M)"
measured_number = 0.3

